Source: patent US20140288052A1

# tested.target: SIRT1 (Homo sapiens)
# assay.remarks: TAMRA based mass spectrometry assay of SIRT1 deacetylase activation
# Type: biochemical
# test.conditions: percent maximum fold activation relative to control (100%); TAMRA peptide substrate
experimental.readout: TAMRA % Fold Act

Solved entries (count: 5):
compound	TAMRA % Fold Act
O=C(Nc1nccs1)c1ccnn2cc(-c3ccccc3C(F)(F)F)nc12 [Compound 13]	B (Fold Activation<350%)
Cc1cnc(NC(=O)c2ccnc3cc(-c4ccccc4C(F)(F)F)nn23)s1 [Compound 80]	B (Fold Activation<350%)
O=C(Nc1cccc(N2CCOCC2)n1)c1ccnn2cc(-c3cccc(Cl)c3)nc12 [Compound 24]	B (Fold Activation<350%)
Cc1nc(C(=O)Nc2ccnc3cc(-c4ccccc4C(F)(F)F)nn23)cs1 [Compound 56]	A (Fold activation≧350%)
O=C(Nc1ccccn1)c1cc(N2CCOCC2)nn2cc(-c3ccccc3C(F)(F)F)nc12 [Compound 44]	B (Fold Activation<350%)

// recorded TAMRA % Fold Act for O=C(Nc1cccc(N2CCOCC2)n1)c1ccnc2cc(-c3ccccc3C(F)(F)F)nn12 [Compound 82] : A (Fold activation≧350%)

// recorded TAMRA % Fold Act for Cc1cccnc1C(=O)Nc1ccnc2cc(-c3ccccc3C(F)(F)F)nn12 [Compound 112] : A (Fold activation≧350%)

// recorded TAMRA % Fold Act for O=C(Nc1ccncn1)c1ccnc2cc(-c3cccc(C(F)(F)F)c3)nn12 [Compound 92] : B (Fold Activation<350%)

// recorded TAMRA % Fold Act for O=C(Nc1ncccn1)c1ccnc2cc(-c3cccc(C(F)(F)F)c3)nn12 [Compound 101] : B (Fold Activation<350%)

// recorded TAMRA % Fold Act for O=C(Nc1ccnc2cc(-c3ccccc3C(F)(F)F)nn12)c1cscn1 [Compound 55] : A (Fold activation≧350%)

// recorded TAMRA % Fold Act for O=C(Nc1ccnc2cc(-c3ccccc3C(F)(F)F)nn12)c1cccnc1 [Compound 103] : B (Fold Activation<350%)

---

# tested.target: UniProt:Q96EB6
# Sequence (Q96EB6 1-747): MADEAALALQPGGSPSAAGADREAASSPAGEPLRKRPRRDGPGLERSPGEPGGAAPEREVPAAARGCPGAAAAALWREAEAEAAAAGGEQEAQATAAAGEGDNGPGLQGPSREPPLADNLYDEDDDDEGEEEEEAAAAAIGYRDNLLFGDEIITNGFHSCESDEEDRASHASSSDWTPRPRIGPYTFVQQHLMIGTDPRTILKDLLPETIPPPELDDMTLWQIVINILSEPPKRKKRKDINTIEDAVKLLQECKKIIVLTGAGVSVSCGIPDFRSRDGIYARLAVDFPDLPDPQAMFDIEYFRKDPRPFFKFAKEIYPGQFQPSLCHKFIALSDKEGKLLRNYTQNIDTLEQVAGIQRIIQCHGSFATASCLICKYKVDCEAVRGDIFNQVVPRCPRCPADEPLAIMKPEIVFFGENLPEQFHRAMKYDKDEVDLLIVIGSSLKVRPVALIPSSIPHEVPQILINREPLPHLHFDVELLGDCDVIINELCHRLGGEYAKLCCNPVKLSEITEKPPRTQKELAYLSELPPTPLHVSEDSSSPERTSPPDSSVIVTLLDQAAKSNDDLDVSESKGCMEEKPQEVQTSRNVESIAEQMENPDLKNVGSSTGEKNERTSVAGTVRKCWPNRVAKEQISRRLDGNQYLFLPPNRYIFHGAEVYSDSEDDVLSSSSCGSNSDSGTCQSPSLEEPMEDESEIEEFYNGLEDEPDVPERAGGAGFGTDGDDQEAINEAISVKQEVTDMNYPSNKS
# assay.remarks: TAMRA based mass spectrometry assay of SIRT1 deacetylase activation
# Type: biochemical
# test.conditions: concentration that results in 150% activation of SIRT1; TAMRA peptide substrate
experimental.readout: TAMRA EC1.5 (μM)

Solved entries (count: 5):
compound	tested.target	TAMRA EC1.5 (μM)
Cc1csc(NC(=O)c2ccnc3cc(-c4ccccc4C(F)(F)F)nn23)n1	UniProt:Q96EB6	B (EC1.5 1−25 μM)
Cc1csc(NC(=O)c2ccnc3cc(-c4cccc(C(F)(F)F)c4)nn23)n1	UniProt:Q96EB6	C (EC1.5>25 μM)
O=C(Nc1ccnc2cc(-c3ccccc3C(F)(F)F)nn12)c1cccc(N2CCOCC2)n1	UniProt:Q96EB6	A (EC1.5<1 μM)
COc1cccc(C(=O)Nc2ccnc3cc(-c4ccccc4C(F)(F)F)nn23)n1	UniProt:Q96EB6	A (EC1.5<1 μM)
O=C(Nc1ccnc2cc(-c3ccccc3C(F)(F)F)nn12)c1cnc(O)cn1	UniProt:Q96EB6	A (EC1.5<1 μM)

// recorded TAMRA EC1.5 (μM) for O=C(Nc1ccnc2cc(-c3cccc(C(F)(F)F)c3)nn12)c1ccncn1 : C (EC1.5>25 μM)

// recorded TAMRA EC1.5 (μM) for Cc1cnc(NC(=O)c2cc(N3CCOCC3)nn3cc(-c4ccccc4C(F)(F)F)nc23)s1 : A (EC1.5<1 μM)

// recorded TAMRA EC1.5 (μM) for O=C(Nc1cccc(N2CCOCC2)n1)c1ccnn2cc(-c3ccccc3C(F)(F)F)nc12 : A (EC1.5<1 μM)

// recorded TAMRA EC1.5 (μM) for O=C(Nc1ccccn1)c1ccnc2cc(-c3ccccc3C(F)(F)F)nn12 : B (EC1.5 1−25 μM)

// recorded TAMRA EC1.5 (μM) for Cc1cnc(NC(=O)c2ccnc3cc(-c4cccc(C(F)(F)F)c4)nn23)s1 : B (EC1.5 1−25 μM)

// recorded TAMRA EC1.5 (μM) for O=C(Nc1cccc(N2CCOCC2)n1)c1ccnc2cc(-c3ccccc3C(F)(F)F)nn12 : A (EC1.5<1 μM)
